- Test system: tetA promoter (PtetA)-lacZ reporter in E. coli KM3
- Type: cell-based
- run.parameters: Table 4; ethametsulfuron 20 μg/ml (20 ppm); 48 hrs at 30° C.
readout.kind: relative β-galactosidase activity, inducer Es
Simply state the number, no unit and no words.

- molecule: "L1-31: library L1 hit, sulfonylurea-responsive TetR(B) variant (protein, Sulfonylurea responsive repressor L1-31) MGSRLDKSKVINSALELLNEVGIEGLTTRKLAQKLGVEQPTLYWHVKNKRALLDALAIEMLDRHATHFCPLEGESWQDFLRNNAKSMRCALLSHRDGAKVMLGTRATEKQYETVENRLAFLCQQGFSLENALYAVRAVHWFTLGCVLIDQEMQVAKEERETPTTDSMPPLLRQAYELYDHQGAEPAFLFGLELIICGLEKQLKCESGS"
  measured.result: 13.7
- molecule: "L1-24: library L1 hit, sulfonylurea-responsive TetR(B) variant (protein, Sulfonylurea responsive repressor L1-24) MGSRLDKSKVINSALELLNEVGIEGLTTRKLAQKLGVEQPTLYWHVKNKRALLDALAIEMLDRHNTHFCPLEGESWQDFLRNSAKSMRCALLSHRDGAKVLLGTAVTEKQYETTENSLAFLCQQGFSLENALYAIRAVRTFTLGCVLVDQERQVAKEERETPTTDSMPPLLRQAKELLDHQGAEPAFLFGLELIICGLEKQLKCESGS"
  measured.result: 0.2
- molecule: "L1-7: library L1 hit, sulfonylurea-responsive TetR(B) variant, SEQ ID NO: 4 (protein, Sulfonylurea responsive repressor L1-07) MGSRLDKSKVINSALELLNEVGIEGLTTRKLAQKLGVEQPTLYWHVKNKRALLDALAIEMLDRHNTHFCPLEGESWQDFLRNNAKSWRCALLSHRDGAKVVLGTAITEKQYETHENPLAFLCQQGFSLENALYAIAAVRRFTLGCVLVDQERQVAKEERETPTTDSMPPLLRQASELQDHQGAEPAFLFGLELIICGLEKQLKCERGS"
  measured.result: 0.1

In plain terms, L1-28: library L1 hit, sulfonylurea-responsive TetR(B) variant (protein, Sulfonylurea responsive repressor L1-28) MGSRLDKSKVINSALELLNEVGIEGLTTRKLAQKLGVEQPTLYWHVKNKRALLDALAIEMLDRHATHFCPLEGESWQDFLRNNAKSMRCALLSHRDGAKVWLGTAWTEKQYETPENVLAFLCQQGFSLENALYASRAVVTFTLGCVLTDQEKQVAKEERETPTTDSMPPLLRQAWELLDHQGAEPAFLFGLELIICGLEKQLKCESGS has a documented relative β-galactosidase activity, inducer Es of 0.8

Reported relative β-galactosidase activity, inducer Es of L1-29: library L1 hit, sulfonylurea-responsive TetR(B) variant, SEQ ID NO: 10 (protein, Sulfonylurea responsive repressor L1-29) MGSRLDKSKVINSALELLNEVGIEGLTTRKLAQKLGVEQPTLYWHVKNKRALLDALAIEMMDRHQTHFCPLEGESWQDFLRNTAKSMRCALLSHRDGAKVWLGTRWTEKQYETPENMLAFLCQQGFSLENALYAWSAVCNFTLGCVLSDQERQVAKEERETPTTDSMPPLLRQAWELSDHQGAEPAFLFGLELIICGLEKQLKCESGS : 1.7
